Listed molecules paired with reported GI50
# System: A498
# method_summary: NCI tumour cell line growth inhibition, 48 h
Active and inactive are the calls of the source. No stated cut-off is given here; in the data, active = GI50 up to about 1.1 µM and inactive = higher.
observable: GI50

>>> reported_result("Cc1ccc(NC(c2ccccc2)c2ccc3cccnc3c2O)cc1 (centres undefined)")
"12.2 µM (inactive)"
>>> reported_result("CC(=O)O[C@H]1/C(=C/c2ccc(N(C)C)cc2)C[C@H]2[C@@H]3CC=C4C[C@@H](N5CCCC5)CC[C@]4(C)[C@H]3CC[C@]12C")
"> 100 µM (inactive)"
>>> reported_result("Cc1ccc(/N=C2\\N=C(N3CC(C)OC(C)C3)c3ccccc32)cc1 (centres undefined)")
"26.6 µM (inactive)"
>>> reported_result("Cc1csc(NC23CC4CC(CC(C4)C2)C3)[n+]1C(P(=O)([O-])O)P(=O)(O)O (centres undefined)")
"> 100 µM (inactive)"
>>> reported_result("OCC1OC(Oc2cc(O)cc(/C=C\\c3ccc(O)cc3)c2)C(O)C(O)C1O (centres undefined)")
"> 100 µM (inactive)"
>>> reported_result("Fc1cccc(C2SCC3=Nc4ccccc4CN32)c1 (centres undefined)")
"> 100 µM (inactive)"
>>> reported_result("C/C(=N\\NC1=NCCN1)c1cn(C2=NCCN2)nc1C")
"> 100 µM (inactive)"
>>> reported_result("Cc1ccc(CC(Cc2ccccc2C)C(=O)O)c(C(=O)O)c1 (centres undefined)")
"> 100 µM (inactive)"
>>> reported_result("CC(C)[Si](OC/C(=C/COC(C)(C)C)[C@H]1CC=C(C(=O)c2ccccc2N2CN(C)C(=O)N(C)C2)C1)(C(C)C)C(C)C")
"19.7 µM (inactive)"

* * *

# Tested on: HT-29
# method_summary: NCI tumour cell line growth inhibition, 48 h
Active and inactive are the calls of the source. No stated cut-off is given here; in the data, active = GI50 up to about 1.1 µM and inactive = higher.
observable: GI50

>>> reported_result("CN(C)CCNC(=O)c1cccc2[nH]c(-c3cccnc3)nc12")
"27.4 µM (inactive)"
>>> reported_result("O=C1c2ccccc2C(=O)N1CC#CCO")
"> 100 µM (inactive)"
>>> reported_result("OCC1OC(Oc2cc(O)cc(/C=C\\c3ccc(O)cc3)c2)C(O)C(O)C1O (stereo unspecified)")
"> 100 µM (inactive)"
>>> reported_result("CC1CC(=O)Nc2ccccc2N1C(=O)C1CC1 (stereo unspecified)")
"> 100 µM (inactive)"
>>> reported_result("Cc1sc2nc3n(sc4nc5sc(C)c(C)c5c(=O)n43)c(=O)c2c1C")
"> 100 µM (inactive)"
>>> reported_result("NC(CCCC(N)P(=O)(O)O)C(=O)O (stereo unspecified)")
"> 100 µM (inactive)"
>>> reported_result("COc1ccc2c(c1)C(=O)N1CCOC1C2C(=O)O (stereo unspecified)")
"> 100 µM (inactive)"
>>> reported_result("Fc1ccc(Oc2nc3ccccc3nc2-c2ccccc2)cc1")
"> 100 µM (inactive)"
>>> reported_result("Cc1ccc(CC(Cc2ccccc2C)C(=O)O)c(C(=O)O)c1 (stereo unspecified)")
"> 100 µM (inactive)"
>>> reported_result("CCCCCCCCCCCCC(Br)C(=O)SCCNC(=O)CCNC(=O)[C@@H](O)C(C)(C)COP(=O)(O)OP(=O)(O)OCC1OC(n2cnc3c(N)ncnc32)C(O)C1OP(=O)(O)O (stereo partly specified)")
"> 56.5 µM (inactive)"
>>> reported_result("COC(=O)/C=C\\n1ncc(=O)[nH]c1=O")
"> 100 µM (inactive)"
>>> reported_result("O=C(/C=C/c1ccccc1)Oc1cccc2cccnc12")
"7.93 µM (inactive)"
>>> reported_result("Brc1ccc(C2C3CSc4ccccc4C3=NN2c2ccccc2)cc1 (stereo unspecified)")
"78.2 µM (inactive)"
>>> reported_result("N[C@H]1CCN(c2c(F)cc3c(=O)c(C(=O)O)cn4c3c2Oc2cc3c(ccc5ccccc53)cc2-4)C1")
"3.08 µM (inactive)"
>>> reported_result("CCOC(=O)c1csc(NC(=O)CN2CCN(c3ccccc3)CC2)n1")
"> 100 µM (inactive)"
>>> reported_result("COC(=O)C12CCC(C)(C)CC1C1=CCC3C4(C)CC(O)C(O)C(C)(C(=O)OC)C4CCC3(C)C1(CO)CC2 (stereo unspecified)")
"13.6 µM (inactive)"
>>> reported_result("COC(=O)[C@@H]1C=C[C@@H](C#N)n2c(=O)n(-c3ccccc3)c(=O)n21")
"31.1 µM (inactive)"
>>> reported_result("CCc1c(C)[nH]c2c1/C(=N/N=C1\\CCCc3[nH]c(C)c(CC)c31)CCC2")
"27.4 µM (inactive)"
>>> reported_result("Cc1nc2nnnn2c2c1C(=O)Nc1ccccc1N2")
"> 100 µM (inactive)"
>>> reported_result("COc1ccc(C(Cl)=C(c2ccc(OCCN(C)C)cc2)c2ccc(OCCN(C)C)cc2)cc1")
"1.49 µM (inactive)"
>>> reported_result("O=C(Sc1c(-c2ccccc2)c(=O)n(-c2ccccc2)c(=S)n1-c1ccccc1)c1cccs1")
"72.3 µM (inactive)"

* * *

# System: OVCAR-8
# method_summary: NCI tumour cell line growth inhibition, 48 h
Activity calls are given as the source filed them. No stated cut-off is given here; in the data, active = GI50 up to about 1.1 µM and inactive = higher.
Labels: y for active, n for inactive

>>> classification("COc1ccc2ccc3c(c2c1)CN1CCc2cc(OC)c(OC)cc2C1C3 (stereo not given)")
"n"
>>> classification("CC1=C(C(=O)Nc2ccccc2)C(c2ccccc2)C(C(=O)Nc2ccccc2)=C(C)N1")
"n"
>>> classification("COc1cc(Oc2nc3ccc(C(F)(F)F)cc3nc2-c2ccccc2)cc(OC)c1OC")
"n"
>>> classification("NC(=O)/N=C(\\N)NC(=O)c1ccccc1")
"n"
>>> classification("C=C1C(=O)C23C(CC(OC(C)=O)C1[C@@H]2OC(C)=O)C1(C)C(OC(C)=O)CCC(C)(C)C1C[C@@H]3OC(C)=O (stereo not given in full)")
"y"
>>> classification("CC(=O)CN/C(C)=N/Nc1ccc([N+](=O)[O-])cc1[N+](=O)[O-]")
"n"
>>> classification("CC(O)CNC(=O)C(C)Oc1ccc(OCC2CCCCC2)cc1 (stereo not given)")
"n"
>>> classification("COc1ccc(NC(C(N)=O)c2cc3cc(Br)ccc3nc2Cl)cc1 (stereo not given)")
"n"
>>> classification("NC(CCCC(N)P(=O)(O)O)C(=O)O (stereo not given)")
"n"
>>> classification("COc1ccc(/C=C(\\NC(=O)c2ccccc2)c2nc3ccccc3[nH]2)cc1OC")
"n"
>>> classification("CCN(CC)c1ccc(/C=C/C2=NN(c3cccc(S(=O)(=O)O)c3)C3(C2)C(Cl)C(=O)N3c2nc3ccccc3s2)cc1 (stereo not given)")
"n"
>>> classification("C[C@H]1CC[C@@H]2[C@@H](C)[C@H]3[C@H](C[C@H]4[C@@H]5CC=C6C[C@@H](O)CC[C@]6(C)[C@H]5CC[C@]34C)N2C1")
"n"
>>> classification("CC(C)=CC(=O)CC(=O)C(=O)Nc1ccc(Cl)c(Cl)c1")
"n"
>>> classification("CC(C)(C)c1cc(C(O)(C(F)(F)F)C(F)(F)F)c2c(c1)C(C(F)(F)F)(C(F)(F)F)OC(C)(C(C)(C)C)N2 (stereo not given)")
"n"
>>> classification("O=C1N[C@@H](c2c[nH]c3cc(Br)ccc23)C(=O)N[C@H]1c1c[nH]c2cc(Br)ccc12")
"n"
>>> classification("N#CCCN(CCC#N)c1ccc(/C=C(/NC(=O)Nc2ccccc2Cl)NC(=O)c2cc([N+](=O)[O-])ccc2Cl)cc1")
"n"
>>> classification("CC(C)(C)c1ccc(-c2nnc(-c3cc(C#N)cc(-c4nnc(-c5ccc(C(C)(C)C)cc5)o4)c3)o2)cc1")
"n"
>>> classification("Clc1ccc(-c2cc(-c3cc4cc(Br)ccc4nc3Cl)on2)cc1")
"n"
>>> classification("Nc1nc(SCCC/C=C/I)nc2c1ncn2C1OC(COP(=O)(O)O)C(O)C1O (stereo not given)")
"n"
>>> classification("Cn1c(=O)c2nc(NCCO)cnc2n(C)c1=O")
"n"
>>> classification("COC(=O)/C(=N\\NC(N)=S)C(C#N)c1ccccc1 (stereo not given)")
"n"
>>> classification("COC(=O)c1nc(NN)cc(O)c1CCCCCc1c(O)nc(NN)nc1C(=O)OC")
"n"
>>> classification("N#Cc1cccc(N2C(=O)C3C4C=CC(C3C2=O)C2C(=O)N(c3cccc(C#N)c3)C(=O)C42)c1 (stereo not given)")
"n"
>>> classification("O=C1CCCCCCC2=C1C(Sc1ccccc1)CC2 (stereo not given)")
"n"
>>> classification("NC1CC(=O)c2c(Br)csc21 (stereo not given)")
"n"
>>> classification("CC1(C)O[C@@H](CCl)C[C@H](C#N)O1")
"n"
>>> classification("COC(=O)[C@@H]1C=C[C@@H](C#N)n2c(=O)n(-c3ccccc3)c(=O)n21")
"n"
>>> classification("Cn1cnc([N+](=O)[O-])c1Sc1n[nH]c(-c2ccc(Cl)cc2)n1")
"n"
>>> classification("O=c1n(-c2ccccc2)c(=O)n2n1C1C=CC2C2C(C1)C2(Cl)Cl (stereo not given)")
"n"
>>> classification("CC(C)(C)[Si](Nc1ccccc1)(c1ccccc1)c1ccccc1")
"n"
>>> classification("Nc1ccc(Nc2c3ccccc3nc3ccccc23)cc1")
"n"
>>> classification("Brc1ccc2c(c1)[C@H]1CCc3c([nH]c4ccccc34)[C@H]1N2")
"n"
>>> classification("C/C=C(\\N=C=S)C(=O)OC1C(COC(C)=O)OC([C@]2(O)CC(=O)C(N)=C(C(=O)O)C2=O)C(O)C1OC1CC(OC)C(O)([C@@H](C)OC(=O)[C@@H](C)CC)C(C)O1 (stereo not given in full)")
"n"
>>> classification("C[N+]12C=CC=C1C(N1CCCC1)c1scc(-c3ccc(F)cc3)c12 (stereo not given)")
"n"
>>> classification("CC(=O)Nc1ccc(Sc2nnc(NC(C)=O)s2)cc1")
"n"
>>> classification("O=C1CN(c2cccc(Cl)c2)C(=O)CN1NCNN1CC(=O)N(c2cccc(Cl)c2)CC1=O")
"n"
>>> classification("CCOC(=O)c1csc(NC(=O)CN2CCN(c3ccccc3)CC2)n1")
"n"
>>> classification("Cn1c(=O)c2c(-c3ccccc3)onc2n(C)c1=O")
"n"
>>> classification("O=C1C2CC=CCC2C(=O)C12CCc1ccccc12 (stereo not given)")
"n"
>>> classification("COc1ccc(Cn2nc(OCc3ccccc3)c3cc([N+](=O)[O-])ccc32)cc1")
"n"
